Source listed as patent US20240018189A1.

# subject of test: T1, human ferroportin (SLC40A1) fused in frame with GFP (human) (UniProt Q9NP59)
# T1 sequence (looked up): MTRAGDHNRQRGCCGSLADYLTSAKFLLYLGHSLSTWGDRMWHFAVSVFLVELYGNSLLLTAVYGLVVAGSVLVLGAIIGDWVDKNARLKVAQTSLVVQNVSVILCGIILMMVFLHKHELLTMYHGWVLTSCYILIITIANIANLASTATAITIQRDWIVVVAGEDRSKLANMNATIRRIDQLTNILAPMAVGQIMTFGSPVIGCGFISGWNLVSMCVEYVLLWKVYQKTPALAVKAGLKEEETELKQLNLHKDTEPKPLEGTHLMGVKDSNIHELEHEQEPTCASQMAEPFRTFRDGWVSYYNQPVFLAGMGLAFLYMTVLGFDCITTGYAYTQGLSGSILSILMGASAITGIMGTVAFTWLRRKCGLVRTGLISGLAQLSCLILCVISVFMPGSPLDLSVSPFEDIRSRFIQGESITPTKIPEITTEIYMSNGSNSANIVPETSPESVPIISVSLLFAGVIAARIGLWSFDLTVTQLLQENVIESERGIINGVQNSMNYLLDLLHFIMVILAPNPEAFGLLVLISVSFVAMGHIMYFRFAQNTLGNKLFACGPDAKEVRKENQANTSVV
# experimental protocol: cell-based or functional assay
Positions of bridges follow the written chain, without caps; N, C: chain ends. Non-standard residues stand in square brackets, D forms with d. Groups on a side chain read outwards from the residue. *: point of attachment. PEG12 = NCCOCCOCCOCCOCCOCCOCCOCCOCCOCCOCCOCCOCCC(=O)O; Phe(4-tBu) = CC(C)(C)c1ccc(C[C@H](N)C(=O)O)cc1; Phe(3,4-F2) = N[C@@H](Cc1ccc(F)c(F)c1)C(=O)O; Dip = N[C@H](C(=O)O)C(c1ccccc1)c1ccccc1; Palmitoyl = CCCCCCCCCCCCCCCC(=O)*; β3hF = N[C@H](CC(=O)O)Cc1ccccc1; Isovaleryl = CC(C)CC(=O)*; Npc = nipecotic acid
reported endpoint: IC50: FPN internalisation

binder: Isovaleryl-DTH[Dip][Npc]CI[dK][Phe(3,4-F2)]K([PEG12-Palmitoyl])KC-NH2 (disulfide 6-12 (inferred)) [Seq. No. 346]
reported value: 0.00616 µM
--
binder: Isovaleryl-DTH[Dip][Npc]CI[dK][Phe(4-tBu)][dK]CK([PEG12-Palmitoyl])-NH2 (disulfide 6-11 (inferred)) [Seq. No. 328]
reported value: 0.0165 µM
--
binder: DTHXPCIKFKXC (N-term isovaleric acid; 4 Dpa; 8 (D)Lys; 10 Lys(PEG12_Palm); 11 Orn; C-term NH2) [Seq. No. 340]
reported value: 0.0269 µM
--
binder: Isovaleryl-DTH[Dip]PCI[β3hF]K([PEG12-Palmitoyl])[dK]C-NH2 (disulfide 6-11 (inferred)) [Seq. No. 330]
reported value: 0.00693 µM
--
binder: DTHXPCIKFKXC (N-term isovaleric acid; 4 Dpa; 8 (D)Lys; 10 Lys(PEG12 Palm); 11 bhLys; C-term NH2) [Seq. No. 338]
reported value: 0.0204 µM
